Biological target: mPGES-1 Mouse enzyme (Mus musculus, UniProt Q9JM51)
Construct: made in house; host or cells: FreeStyle 293-F cells, crude microsomal preparation
Sequence (Q9JM51 1-153): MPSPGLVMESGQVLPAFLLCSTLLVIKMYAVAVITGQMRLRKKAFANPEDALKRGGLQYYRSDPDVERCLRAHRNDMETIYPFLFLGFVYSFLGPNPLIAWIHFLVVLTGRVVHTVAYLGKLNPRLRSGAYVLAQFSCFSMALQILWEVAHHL
Assay: mPGES-1 enzyme activity assay (PGE2 enzyme immunoassay), mouse enzyme
Assay type: biochemical
Conditions: compound at a concentration of 10 μM; read-out: % inhibition of the compound against mPGES-1, Mouse enzyme
Description: Studies were conducted to characterize the inhibitory activity against recombinant mPGES-1 of the compounds synthesized in accordance with Examples 1-4, and disclosed herein. […] Compounds were incubated with the enzyme for 15 min at room temperature before the addition of cold PGH2 (1 μM final) to initiate the enzyme reaction. […] The reaction mixture was placed on ice until PGE2 production was determined by the PGE2 enzyme immunoassay as described earlier. […]
Please mark Criterion met if the recorded inhibition at 10 µM is equal to or greater than 50%, and Criterion not met if it falls below.

>  <molecule>
O=C(CCCN1C(=O)C=CC1=O)Nc1ccc2c(c1)Cc1ccccc1-2 [III-01]

>  <target>
mPGES-1 Mouse enzyme (Mus musculus, UniProt Q9JM51)

>  <class-name>
Criterion not met

$$$$
>  <molecule>
O=C(O)CN1C(=O)S/C(=C2\C(=O)N(CCCCc3ccccc3)c3ccccc32)C1=O [II-05]

>  <target>
mPGES-1 Mouse enzyme (Mus musculus, UniProt Q9JM51)

>  <class-name>
Criterion met

$$$$
>  <molecule>
CCCCCCN1C(=O)/C(=C2\SC(=O)N(CC(=O)O)C2=O)c2ccccc21 [II-13]

>  <target>
mPGES-1 Mouse enzyme (Mus musculus, UniProt Q9JM51)

>  <class-name>
Criterion met

$$$$
>  <molecule>
O=C1NC(=S)S/C1=C1\C(=O)N(CCCC2CCCCC2)c2ccccc21 [II-29]

>  <target>
mPGES-1 Mouse enzyme (Mus musculus, UniProt Q9JM51)

>  <class-name>
Criterion not met

$$$$
>  <molecule>
CCCCCCOc1ccc(-c2nn(-c3ccc(Cl)cc3)cc2/C=C(/C#N)C(=O)O)cc1 [VII-15]

>  <target>
mPGES-1 Mouse enzyme (Mus musculus, UniProt Q9JM51)

>  <class-name>
Criterion not met

$$$$
>  <molecule>
O=C1NC(=O)C(=Cc2ccc(OCCCOc3ccc4ccccc4c3)c(Cl)c2)C(=O)N1 [Compound I-36]

>  <target>
mPGES-1 Mouse enzyme (Mus musculus, UniProt Q9JM51)

>  <class-name>
Criterion not met

$$$$
>  <molecule>
O=C1NC(=O)C(=Cc2cn(-c3ccccc3)nc2-c2ccc(OCc3ccccc3)cc2)C(=O)N1 [VI-09]

>  <target>
mPGES-1 Mouse enzyme (Mus musculus, UniProt Q9JM51)

>  <class-name>
Criterion not met

$$$$
